system: CCRF-CEM leukemia; assay: NCI tumour cell line growth inhibition, 48 h
Form field: TGI (one value per entry).

Example results:
Nc1nccc(C#Cc2cncnc2Nc2ccc(OCc3cccc(F)c3)c(Cl)c2)n1
> 19.2 µM
CC1(C)O[C@@H]([C@@H](O)[C@H](O)C2SCCCS2)[C@@H](CO)O1
> 100 µM
COC(=O)C12C3C=CC(O3)C1C1C=CC2O1 (stereo not given)
> 100 µM
COc1cc(-c2[nH]ncc2CCCC(=O)Nc2ccccc2[N+](=O)[O-])ccc1O
> 100 µM

Form field TGI for item Oc1ccc(-c2nc(-c3ccc(F)cc3)c(-c3ccncc3)[nH]2)cc1 on CCRF-CEM leukemia: 59.8 µM
